# MEASUREMENT_DESCRIPTION: chemical genetic growth profiling, strain panel (AID 1159580);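 also: tested at 20 µM; growth read once vehicle control cultures reached saturation at 30 °C; 1 = growth at the plate median or of vehicle wells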
# COND: S. cerevisiae deletion strains, growth OD, locus YLR039C, strain RIC1, stronger effect = lower value
Screen size: about 5,500 compounds; about 2,000 (36%) were called active. Not shown: some 18% with an inconclusive outcome. The list shows a part of the results.
Exam item: assign 1 to entries whose normalized growth is below 0.9 and 0 to entries at or above 0.9. Note that a value of exactly 0.9 receives 0.

| MOLECULE | LABEL_VALUE |
| --- | --- |
| C#C[C@]1(O)CCC2C3CCC4=CC(=O)CC[C@@H]4C3CC[C@@]21C (stereo not given in full) | 1 |
| CC(=O)/C=C\[C@@H]1[C@@]2(C)CCCC(C)(C)C2CC[C@@]1(C)O (stereo not given in full) | 1 |
| Nc1ccc(S(=O)(=O)Nc2cnc3ccccc3n2)cc1 | 0 |
| Nc1ccccc1C(=O)N/N=C\c1cccc2ccccc12 | 1 |
| Cc1ccc(S(=O)(=O)NC(=O)NN2CC3CCCC3C2)cc1 (stereo not given) | 0 |
| NCCC(=O)N[C@@H](Cc1cnc[nH]1)C(=O)O | 0 |
| C[C@]12CCC(=O)C=C1CCC1C2[C@@H](O)C[C@@]2(C)C1CC[C@]2(O)C(=O)CO (stereo not given in full) | 0 |
| C=C/C(C)=C\CC1C(C)(O)CCC2C(C)(C)CCCC21C (stereo not given) | 1 |
| COc1c(CC(=O)c2cc3c(cc2O)OC(C)(C)C(O)C3)ccc2c1C=CC(C)(C)O2 (stereo not given) | 0 |

====

# MEASUREMENT_DESCRIPTION: chemical genetic growth profiling, strain panel (AID 1159580)
# COND: S. cerevisiae deletion strains, growth OD, locus YJL115W, strain asf1, stronger effect = lower value
In all, about 5,500 compounds went through this assay and about 2,000 (36%) were called active. Not shown: some 18% with an inconclusive outcome. The list shows a part of the results.
Here, each record is paired with measured normalized growth data.
RECORDED_ENDPOINT: normalized growth

| COMPOUND | QUANTITATIVE_RESULT |
| --- | --- |
| CC1(C)CC[C@@]2(C(=O)O)C(C1)C1=CCC3[C@@]4(C)CC[C@H](O)C(C)(C)C4CC[C@@]3(C)[C@]1(C)C[C@@H]2O (some centres undefined) | 1.02 |
| COC(=O)C[C@H]1C(C)(C)C2(O)OC34CC2C(=O)[C@]1(C)C3CC[C@]1(C)C4=CC(=O)O[C@H]1c1ccoc1 (some centres undefined) | 0.984 |
| Cc1cc(O)cc(C)c1Cl | 0.997 |
| CC(CC(=O)C1OC1(C)C)C1C(=O)CC2(C)C3=CCC4C(C)(C)C(OC5OCC(O)C(O)C5O)CCC45CC35C(O)CC12C (centres undefined) | 1.01 |
| C#C[C@]1(OC(C)=O)CCC2C3CCC4=CC(=O)CC[C@@H]4C3CC[C@@]21C (some centres undefined) | 0.982 |
| Cc1cc(O)cc(O)c1C(=O)O | 1.02 |
| CC1OC(=O)C(C(C)C)NC(=O)C(C(C)C)OC(=O)C(C(C)C)NC(=O)C(C)OC(=O)C(C(C)C)NC(=O)C(C(C)C)OC(=O)C(C(C)C)NC(=O)C(C)OC(=O)C(C(C)C)NC(=O)C(C(C)C)OC(=O)C(C(C)C)NC1=O (centres undefined) | 0.79 |
| C#C[C@]1(O)CCC2C3CCC4=CC(=O)CC[C@@H]4C3CC[C@@]21CC (some centres undefined) | 1 |
| COc1ccc2c(c1)c(CC(=O)O)c(C)n2C(=O)c1ccc(Cl)cc1 | 0.969 |
| O=C1c2c(O)cccc2Cc2cccc(O)c21 | 0.982 |
| CC1(C)CCC2(C(=O)O)CCC3(C)C(=CCC4C5(C)CCC(O)C(C)(C)C5C(O)CC43C)C2C1 (centres undefined) | 1.03 |
| CC(C)=CCCC1(C)C=Cc2c(O)c3c(c(CC=C(C)C)c2O1)OC12C(=CC4CC1C(C)(C)OC2(C/C=C(/C)C(=O)O)C4=O)C3=O (centres undefined) | 0.951 |
| COc1ccc2c(c1)c(CC(=O)OCC(=O)O)c(C)n2C(=O)c1ccc(Cl)cc1 | 0.992 |
| Cc1cc(O)cc(=O)o1 | 0.969 |
| CC(=O)NCc1c(I)c(NC(C)=O)c(I)c(C(=O)O)c1I | 0.993 |
| CNCc1ccccc1 | 1.03 |
| CC(=O)NC(C(=O)O)C(C)(C)SN=O (centres undefined) | 0.986 |
| CNC(=O)O/N=C\C(C)(C)SC | 1.02 |
| C[C@@H]1CC[C@]2(C(=O)O)CC[C@]3(C)C(=CCC4[C@@]5(C)CC[C@H](O)C(C)(C)C5CC[C@]43C)C2[C@H]1C (some centres undefined) | 0.992 |

====

# MEASUREMENT_DESCRIPTION: chemical genetic growth profiling, strain panel (AID 1159580);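 also: tested at 20 µM; growth read once vehicle control cultures reached saturation at 30 °C; 1 = growth at the plate median or of vehicle wells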
# COND: S. cerevisiae deletion strains, growth OD, locus YOL078W, strain AVO1, stronger effect = lower value
Out of some 5,500 compounds screened, about 2,000 (36%) were called active. Roughly 18% stayed inconclusive and do not appear here. The list shows a part of the results.

| COMPOUND | normalized growth |
| --- | --- |
| O=C(CSCc1csc2ccccc12)Nc1ccc(F)c(Cl)c1 | 0.979 (inactive) |
| Cc1csc(NC(=O)Nc2ccc(C(F)(F)F)cc2)c1Cl | 0.946 (inactive) |
| S=C(Nc1ccc(Cl)cc1)SCc1c(Cl)cccc1Cl | 0.979 (inactive) |
| S=C(NNC(=S)NC1CC2C=CC1C2)Nc1ccc(Br)c(Cl)c1 (stereo unspecified) | 0.984 (inactive) |
| O=C(NCCNc1ncc(C(F)(F)F)cc1Cl)C(F)(F)Sc1ccccc1 | 0.98 (inactive) |
| O=C(Nc1ccc(Cl)cc1)SCc1c(Cl)cccc1Cl | 0.977 (inactive) |

====

# MEASUREMENT_DESCRIPTION: chemical genetic growth profiling, strain panel (AID 1159580);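 also: tested at 20 µM; growth read once vehicle control cultures reached saturation at 30 °C; 1 = growth at the plate median or of vehicle wells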
# COND: S. cerevisiae deletion strains, growth OD, locus YDR318W, strain mcm21, stronger effect = lower value
Among all 5,500 compounds or so, about 2,000 (36%) were called active. Not shown: some 18% with an inconclusive outcome. This is one part of the list.
RECORDED_ENDPOINT: normalized growth

| COMPOUND | RECORDED_ENDPOINT | QUANTITATIVE_RESULT |
| --- | --- | --- |
| COc1c(CC(=O)c2cc3c(cc2O)OC(C)(C)C(O)C3)ccc2c1C=CC(C)(C)O2 (stereo not given) | normalized growth | 0.984 |
| COc1cccc(OC)c1OCCNCC1COc2ccccc2O1 (stereo not given) | normalized growth | 0.966 |
| O=c1oc2cc(O)ccc2s1 | normalized growth | 0.911 |
| O=C(COc1ccc(Cl)cc1)N1CCN(Cc2ccc3c(c2)OCO3)CC1 | normalized growth | 0.921 |
| CC(C)=CCCC1(C)C=Cc2c(O)c3c(c(CC=C(C)C)c2O1)OC12C(=CCCC1C(C)(C)O[C@@]2(C/C=C(\C)C(=O)O)C(=O)O)C3=O (stereo not given in full) | normalized growth | 0.81 |
| O=C(O)/C=C1\CCCc2ccccc2C1O (stereo not given) | normalized growth | 0.985 |
| CC1(C)CC[C@]2(C)CC[C@]3(C)C(=CCC4[C@@]5(C)CC[C@H](O)C(C)(C)C5CC[C@]43C)C2C1 (stereo not given in full) | normalized growth | 0.985 |
| COc1ccc2[nH]cc(CCN)c2c1 | normalized growth | 0.995 |
| CC(C)=CCCC1(C)C=Cc2c(O)c3c(c(CC=C(C)C)c2O1)OC12C(=CC4CC1C(C)(C)OC2(C/C=C(/C)C(=O)O)C4=O)C3=O (stereo not given) | normalized growth | 0.879 |
| COC(=O)C[C@H]1C(C)(C)C(=O)[C@@H]2CC3C4=CC(=O)O[C@@H](c5ccoc5)[C@]4(C)CCC3[C@@]1(C)C2=O (stereo not given in full) | normalized growth | 0.98 |

====

# MEASUREMENT_DESCRIPTION: chemical genetic growth profiling, strain panel (AID 1159580);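 also: tested at 20 µM; growth read once vehicle control cultures reached saturation at 30 °C; 1 = growth at the plate median or of vehicle wells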
# COND: S. cerevisiae deletion strains, growth OD, locus YNL322C, strain KRE1 (second series)
Out of some 5,500 compounds screened, about 2,000 (36%) were called active. Inconclusive results (about 18%) are left out. No stated cut-off is given here; in the data, active means normalized growth mostly below about 0.91 (no sharp cut-off); inconclusive means no clear call, values can overlap the other calls; inactive means mostly above about 0.92. The list shows a part of the results.
Outcome codes: active, inactive

| COMPOUND | LABEL_VALUE |
| --- | --- |
| C[C@@H]1OC(O[C@H]2C(O[C@H]3CC[C@@]4(C)C(CC[C@]5(C)C4CC=C4C6CC(C)(C)CC[C@]6(C(=O)O)CC[C@]45C)[C@]3(C)CO)OC[C@H](O)[C@@H]2O)[C@H](O)[C@H](O)[C@H]1O (stereo partly drawn) | active |
| OC(CCN1CCCCC1)(c1ccccc1)C1CC2C=CC1C2 (stereo not drawn) | inactive |
| Cc1cc(O)cc(=O)o1 | inactive |
| Cc1cn([C@H]2C[C@H](N=[N+]=[N-])[C@@H](CO)O2)c(=O)[nH]c1=O | inactive |
| CC(=O)O[C@H]1CC[C@@]2(C)C(CC[C@]3(C)C2CC=C2C4CC(C)(C)CC[C@]4(C)CC[C@]23C)C1(C)C (stereo partly drawn) | inactive |
| CC1(C)CC[C@]2(C)CC[C@]3(C)C(=CCC4[C@@]5(C)CC[C@H](O)C(C)(C)C5CC[C@]43C)C2C1 (stereo partly drawn) | inactive |
| Nc1ccc(S(=O)(=O)c2ccc(N)cc2)cc1 | inactive |
| COc1c(-c2coc3cc4c(cc3c2=O)CC(OC(C)=O)C(C)(C)O4)ccc2c1C=CC(C)(C)O2 (stereo not drawn) | inactive |
